Below, each entry is listed with its recorded pIC50.
- Target Or System: IDH1 R132H (Homo sapiens (Human), UniProt O75874, R132H)
- Sequence (O75874 whole entry R132H): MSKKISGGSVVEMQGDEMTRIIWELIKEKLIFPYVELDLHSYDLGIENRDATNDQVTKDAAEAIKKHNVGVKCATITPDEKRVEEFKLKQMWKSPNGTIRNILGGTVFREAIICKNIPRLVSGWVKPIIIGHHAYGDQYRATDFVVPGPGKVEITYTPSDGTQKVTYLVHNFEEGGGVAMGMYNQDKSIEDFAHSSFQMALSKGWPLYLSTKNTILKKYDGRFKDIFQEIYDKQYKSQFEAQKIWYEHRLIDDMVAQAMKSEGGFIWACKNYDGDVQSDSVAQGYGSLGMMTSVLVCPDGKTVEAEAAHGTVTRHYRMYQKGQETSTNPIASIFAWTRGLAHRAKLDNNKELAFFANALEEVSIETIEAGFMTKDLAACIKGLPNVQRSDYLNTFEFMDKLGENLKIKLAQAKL
- Protocol Description: Assays for IDH1 R132H Inhibitors (NADPH/aKG, resazurin detection)
- Type: biochemical
- Experimental Conditions: IDH1 R132H enzyme, Table 2; read-out: IDHR132H Activity
pIC50: −log10 of the molar value.
Measured Quantity: pIC50

Compound: CCC1CN(c2nc(C(C)C)c3c(c2C#N)CC(C)(C)OC3)CCN1C(=O)c1ccoc1 (stereo not drawn)
Observed Result: 5.00 to 6.00
--
Compound: CC(C)c1nc(N2CCN(C(=O)c3ccoc3)[C@H](c3ccccc3)C2)c(C#N)c2c1COC(C)(C)C2
Observed Result: 5.00 to 6.00
--
Compound: C[C@@H]1CN(c2nc(C3CCCC3)c3c(c2C#N)CCOC3)C[C@H](C)N1C(=O)NC1CCCCC1
Observed Result: 5.00 to 6.00
--
Compound: Cc1cncc(C(=O)N2CCN(c3nc(C4CC4)c4c(c3C#N)CC(C)(C)OC4)C[C@H]2C(C)C)c1
Observed Result: 5.00 to 6.00
--
Compound: CCCCCNC(=O)N1CCN(c2nc(C3CC3)c3c(c2C#N)CC(C)(C)OC3)C[C@H]1C(C)C
Observed Result: 5.00 to 6.00
--
Compound: CC(C)[C@@H]1CN(c2nc(C3CC3)c3c(c2C#N)CC(C)(C)OC3)CCN1C(=O)COCCO
Observed Result: 5.00 to 6.00
--
Compound: COc1ccccc1CC(=O)N1CCN(c2nc(C3CCCCC3)c3c(c2C#N)CCOC3)C[C@H]1C
Observed Result: 5.00 to 6.00
--
Compound: C[C@@H]1CN(c2nc(C3CCCCC3)c3c(c2C#N)CCOC3)CCN1C(=O)c1cnc2ccccn12
Observed Result: 5.00 to 6.00
--
Compound: CNC(=O)N1CCN(c2nc(C3CC3)c3c(c2C#N)CC(C)(C)OC3)C[C@H]1C(C)C
Observed Result: > 6.30
--
Compound: CC(C)[C@@H]1CN(c2nc(C3CCC3)c3c(c2C#N)CC(C)(C)OC3)CCN1C(=O)C1CC1
Observed Result: 6.00 to 6.30
--
Compound: CC(C)c1nc(N2CCN(C(=O)c3ccoc3)[C@H](C)C2)c(C#N)c2c1COC(C)(C)C2
Observed Result: 5.00 to 6.00
--
Compound: CC(C)[C@@H]1CN(c2nc(C3CC3)c3c(c2C#N)CC(C)(C)OC3)CCN1C(=O)COc1cccc(F)c1
Observed Result: 5.00 to 6.00
--
Compound: CC(C)[C@@H]1CN(c2nc(C3CC3)c3c(c2C#N)CC(C)(C)OC3)CCN1C(=O)Cn1ccnn1
Observed Result: 5.00 to 6.00
--
Compound: CC[C@@H]1CN(c2nc(C(C)C)c3c(c2C#N)CC(C)(C)OC3)CCN1C(=O)c1ccoc1C
Observed Result: > 6.30
--
Compound: COCCC(=O)N1[C@H](C)CN(c2nc(C3CC3)c3c(c2C#N)CC(C)(C)OC3)C[C@@H]1C
Observed Result: 5.00 to 6.00
--
Compound: Cc1ccccc1NC(=O)N1CCN(c2nc(C3CCCCC3)c3c(c2C#N)CCOC3)C[C@H]1C
Observed Result: 5.00 to 6.00
--
Compound: CC(C)c1nc(N2CCN(C(=O)Cc3ccccn3)[C@H](C(C)C)C2)c(C#N)c2c1COC(C)(C)C2
Observed Result: 6.00 to 6.30
--
Compound: Cc1cc(C(=O)N2CCN(c3nc(C(C)C)c4c(c3C#N)CC(C)(C)OC4)C[C@H]2C)c(C)o1
Observed Result: 5.00 to 6.00
--
Compound: CC(C)[C@@H]1CN(c2nc(C3CC3)c3c(c2C#N)CC(C)(C)OC3)CCN1C(=O)Cc1ccccc1F
Observed Result: 5.00 to 6.00
--
Compound: CC(C)c1nc(N2CCN(C(=O)c3ccco3)CC2c2ccccc2)c(C#N)c2c1COCC2 (stereo not drawn)
Observed Result: 5.00 to 6.00
--
Compound: COC(=O)C1CN(c2nc(C(C)C)c3c(c2C#N)CC(C)(C)OC3)CCN1C(=O)c1ccoc1 (stereo not drawn)
Observed Result: 6.00 to 6.30
--
Compound: C[C@@H]1CN(c2nc(C3CCCCC3)c3c(c2C#N)CCOC3)CCN1C(=O)Nc1ccc(F)cc1
Observed Result: 5.00 to 6.00
--
Compound: C[C@@H]1CN(c2nc(C3CCCCC3)c3c(c2C#N)CCOC3)CCN1C(=O)Cc1cccs1
Observed Result: 5.00 to 6.00
--
Compound: C[C@@H]1CN(c2nc(C3CCCCC3)c3c(c2C#N)CCOC3)CCN1C(=O)Cc1cccc(F)c1
Observed Result: 5.00 to 6.00
--
Compound: CC1CN(c2nc(-c3cccc(F)c3)c3c(c2C#N)CC(C)(C)OC3)CCN1C(=O)c1ccoc1 (stereo not drawn)
Observed Result: 5.00 to 6.00
--
Compound: C[C@@H]1CN(c2nc(C3CCCCC3)c3c(c2C#N)CCOC3)CCN1C(=O)c1csc2ccccc12
Observed Result: 5.00 to 6.00
--
Compound: CC(C)[C@@H]1CN(c2nc(C3CC3)c3c(c2C#N)CC(C)(C)OC3)CCN1C(=O)CC1CC1
Observed Result: > 6.30
--
Compound: CCOC(=O)C1CN(c2nc(C3CCCCC3)c3c(c2C#N)CCOC3)CCN1C(=O)OCCOC (stereo not drawn)
Observed Result: 5.00 to 6.00
--
Compound: CC(C)c1nc(N2CCN(C(=O)Cc3ccccc3)CC2)c(C#N)c2c1COC(C)(C)C2
Observed Result: 5.00 to 6.00
--
Compound: C[C@@H]1CN(c2nc(C3CCCCC3)c3c(c2C#N)CC(C)(C)OC3)CCN1C(=O)Cc1ccccc1
Observed Result: 5.00 to 6.00
